Data provenance is ChEMBL document CHEMBL4483862.

# System: Plasmodium berghei
# assay-explanation: Luciferase/luciferin-expressing antifolate-resistant parasites were used to infect a culture of HepG2 cells that were pre-incubated with compounds. Infected hepatocytes emit light due to the luciferase reaction. Assay results are presented as the percent inhibition of light emission compared to control. […]
# Type: functional
# reported-conditions: sporozoite, HEPG2TOX_HILL_SLOPE 2.58, HEPG2TOX_R_SQUARED 0.837, PBLUC_HILL_SLOPE 4.23, PBLUC_R_SQUARED 0.508, read-out: LUCIFERASE INFECTION ASSAY - IC50
parameter: IC50 (µM)
Kindly provide the numeric value in µM only, without the unit symbol.

Query: Record request: IC50 value, item NC(=O)C(C(=O)/C=C/c1ccc(Cl)cc1)=C1SCCS1
Reply: 4.47
